// provenance: patent US20120220567A1

Listed here are compounds together with their documented IC50.
molecular target: SCD-1 (Homo sapiens, UniProt O00767); construct: 50 μg of protein from a HepG2 cell P2 pellet; endogenous in cells; host or cells: HepG2 cells (P2 pellet); experiment: Stearoyl-CoA desaturase assay (HepG2 cell P2 pellet); assay type: biochemical; details: Table 2, compounds of formula (Ib); protein from HepG2 cell P2 pellet, 20 μM stearoyl-CoA, 15 min at 25° C.; read-out: Ave IC50

Here is how some compounds turned out for IC50.
COMPOUND	SYSTEM TESTED	IC50
Cc1nn(C)c(C)c1CNC(=O)c1cnc(N2CCC3(CC2)CCN(Cc2ccc(C(C)(C)C)cc2)c2cccc(F)c2O3)s1 [Compound 90]	SCD-1 (Homo sapiens, UniProt O00767)	500 to 10000 nM
CC(C)(C)CCNC(=O)c1cnc(N2CCC3(CC2)CCN(Cc2ccc(C(C)(C)C)cc2)c2cccc(F)c2O3)s1 [Compound 122]	SCD-1 (Homo sapiens, UniProt O00767)	> 10000 nM
CC(C)(C)OC(=O)CNC(=O)c1cnc(N2CCC3(CC2)CCN(Cc2ccc(C(C)(C)C)cc2)c2cccc(F)c2O3)s1 [Compound 115]	SCD-1 (Homo sapiens, UniProt O00767)	0.5 to 49 nM
COCCCNC(=O)c1cnc(N2CCC3(CC2)CCN(Cc2ccc(C(C)(C)C)cc2)c2cccc(F)c2O3)s1 [Compound 108]	SCD-1 (Homo sapiens, UniProt O00767)	50 to 499 nM
CC(C)(C)c1ccc(CN2CCC3(CCN(c4ncc(C(N)=O)s4)CC3)Oc3c(F)cccc32)cc1 [Compound 76]	SCD-1 (Homo sapiens, UniProt O00767)	0.5 to 49 nM

Shifting focus to the compound that follows.
Please provide the recorded IC50 for O=C(NC[C@H](O)CO)c1cnc(N2CCC3(CC2)CCN(Cc2cccc(C(F)(F)F)c2)c2ccccc2O3)s1 [Compound 61] , tested on SCD-1 (Homo sapiens, UniProt O00767).
0.5 to 49 nM

---

Overview of recorded pIC50 for various compounds
molecular target: SCD-1 (Homo sapiens, UniProt O00767); construct: 50 μg of protein from a HepG2 cell P2 pellet; endogenous in cells; host or cells: HepG2 cells (P2 pellet); assay: Stearoyl-CoA desaturase assay (HepG2 cell P2 pellet); type: biochemical; settings: Table 1, compounds of formula (Ia); protein from HepG2 cell P2 pellet, 20 μM stearoyl-CoA, 15 min at 25° C.; read-out: Ave IC50
pIC50: −log10 of the molar value.

COMPOUND	READOUT NAME	ENDPOINT VALUE
CC(=O)NCC(=O)N1CCC2(CC1)CCN(Cc1ccc(OC(C)(C)C)cc1)c1ccccc1O2	pIC50	< 5.00
COc1ccc(CN2CCC3(CCN(C(=O)CNC(C)=O)CC3)Oc3ccccc32)cc1	pIC50	5.00 to 6.30
CC(=O)NCC(=O)N1CCC2(CC1)CCN(Cc1ccc(C(C)(C)C)cc1)c1cccc(F)c1O2	pIC50	5.00 to 6.30
CC(=O)NCC(=O)N1CCC2(CC1)CCN(Cc1cccc(F)c1)c1ccccc1O2	pIC50	5.00 to 6.30

Given CCc1ccc(CN2CCC3(CCN(C(=O)CNC(=O)Cc4cn(C)cn4)CC3)Oc3ccccc32)cc1 , state its recorded pIC50.
5.00 to 6.30

Input CCc1ccc(CN2CCC3(CCN(C(=O)[C@H](C)NC(C)=O)CC3)Oc3ccccc32)cc1
< 5.00

What do we get for CCc1ccc(CN2CCC3(CCN(C(=O)C(CO)NC(C)=O)CC3)Oc3ccccc32)cc1 (stereo not shown) ?
< 5.00

And the next one, CCc1ccc(CN2CCC3(CCN(C(=O)CNC(=O)Cc4ccccn4)CC3)Oc3ccccc32)cc1 ?
< 5.00

Can you handle CCc1ccc(CN2CCC3(CCN(C(=O)CNC(=O)C[C@@H](C)O)CC3)Oc3ccccc32)cc1 next?
5.00 to 6.30

Please give the result for CC(=O)NCC(=O)N1CCC2(CC1)CCN(Cc1ccc(F)cc1)c1ccccc1O2 too.
6.30 to 7.30

---

Biological target: SCD-1 (Homo sapiens, UniProt O00767)
Construct: 50 μg of protein from a HepG2 cell P2 pellet; endogenous in cells; host or cells: HepG2 cells (P2 pellet)
Sequence (O00767 1-359): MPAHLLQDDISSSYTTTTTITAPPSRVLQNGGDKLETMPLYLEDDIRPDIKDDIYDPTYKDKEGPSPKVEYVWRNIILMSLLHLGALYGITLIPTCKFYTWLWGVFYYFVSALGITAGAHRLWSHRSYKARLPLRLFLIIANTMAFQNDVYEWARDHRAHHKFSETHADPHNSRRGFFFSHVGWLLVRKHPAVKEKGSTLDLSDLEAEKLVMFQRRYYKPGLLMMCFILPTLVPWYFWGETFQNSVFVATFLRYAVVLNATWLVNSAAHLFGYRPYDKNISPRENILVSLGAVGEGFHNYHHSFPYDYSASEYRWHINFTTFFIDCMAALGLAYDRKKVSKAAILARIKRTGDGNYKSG
Test: Stearoyl-CoA desaturase assay (HepG2 cell P2 pellet)
Format: biochemical
Conditions: Table 2, compounds of formula (Ib); protein from HepG2 cell P2 pellet, 20 μM stearoyl-CoA, 15 min at 25° C.; read-out: Ave IC50
pIC50: −log10 of the molar value.
Each entry below lists one item and its recorded pIC50 value.

What reported pIC50 corresponds to CC(C)CNC(=O)c1cnc(N2CCC3(CC2)CCN(Cc2ccc(C(C)(C)C)cc2)c2cccc(F)c2O3)s1 [Compound 84] on SCD-1 (Homo sapiens, UniProt O00767)?
5.00 to 6.30

# iterate: Cn1cnc(-c2cnc(N3CCC4(CC3)CCN(Cc3ccc(C(C)(C)C)cc3)c3ccccc3O4)s2)n1 [Compound 73]
7.31 to 9.30

Next compound up: CC(C)(C)c1ccc(CN2CCC3(CCN(c4ncc(C(=O)NCCCN5CCCC5)s4)CC3)Oc3c(F)cccc32)cc1 [Compound 117]
< 5.00

How about this compound: CC(C)(C)c1ccc(CN2CCC3(CCN(c4ncc(C(=O)NCCc5c[nH]cn5)s4)CC3)Oc3c(F)cccc32)cc1 [Compound 111]
< 5.00

Now try Cc1cnc(CNC(=O)c2cnc(N3CCC4(CC3)CCN(Cc3ccc(C(C)(C)C)cc3)c3cccc(F)c3O4)s2)cn1 [Compound 112] .
5.00 to 6.30
